test system: α-isomaltosylglucosaccharide-forming enzyme from Bacillus globisporus C9 strain; experiment: Specificity of saccharide transferring reaction acceptor, enzyme of Strain C9; assay type: biochemical; parameters: key: −: no saccharide-transferred product was detected through transferring reaction to acceptor; ±: a saccharide-transferred product was detected in an amount of less than one percent through transfer reaction to acceptor; +: a saccharide-transferred product was detected in an amount of at least one percent but less than ten percent through transferring reaction to acceptor; ++: a saccharide-transferred product was detected in an amount of at least ten percent through transferring reaction to acceptor; settings: 1.6% acceptor, 4% PINE-DEX #100 as donor, one unit/g donor, 30° C., pH 6.0, 24 hours; GLC or HPLC
measuredParameter: Product of saccharide transferring reaction, Enzyme of Strain C9

Any idea what its Product of saccharide transferring reaction, Enzyme of Strain C9 is? The compound is OC[C@H]1O[C@@H]2O[C@H]3[C@H](O)[C@@H](O)[C@@H](O[C@H]4[C@H](O)[C@@H](O)[C@@H](O[C@H]5[C@H](O)[C@@H](O)[C@@H](O[C@H]6[C@H](O)[C@@H](O)[C@@H](O[C@H]7[C@H](O)[C@@H](O)[C@@H](O[C@H]1[C@H](O)[C@H]2O)O[C@@H]7CO)O[C@@H]6CO)O[C@@H]5CO)O[C@@H]4CO)O[C@@H]3CO −

---

tested on: α-isomaltosylglucosaccharide-forming enzyme from Bacillus globisporus C9 strain; test: Specificity of saccharide transferring reaction acceptor, enzyme of Strain C9; type: biochemical; design: key: −: no saccharide-transferred product was detected through transferring reaction to acceptor; ±: a saccharide-transferred product was detected in an amount of less than one percent through transfer reaction to acceptor; +: a saccharide-transferred product was detected in an amount of at least one percent but less than ten percent through transferring reaction to acceptor; ++: a saccharide-transferred product was detected in an amount of at least ten percent through transferring reaction to acceptor; conditions: 1.6% acceptor, 4% PINE-DEX #100 as donor, one unit/g donor, 30° C., pH 6.0, 24 hours; GLC or HPLC
measuredParameter: Product of saccharide transferring reaction, Enzyme of Strain C9

Form: Entry = OC[C@@H](O)[C@@H](O)[C@H](O)[C@@H](O)CO | System = α-isomaltosylglucosaccharide-forming enzyme from Bacillus globisporus C9 strain | Product of saccharide transferring reaction, Enzyme of Strain C9 = ____ −

---

Consider the following compounds; for each one, report its Relative activity.
tested on: α-isomaltosyl-transferring enzyme; test: Influence of metal ions on activity of α-isomaltosyl-transferring enzyme (Strain C9); format: biochemical, Bacillus globisporus C9; conditions: in the presence of 1 mM of each metal ion; None = 100
From the text: […]
Please respond with the number in % and leave the unit unwritten.

What is its Relative activity for α-isomaltosyl-transferring enzyme? Entry: [Mn+2] 106

What reported Relative activity corresponds to [Fe+2] on α-isomaltosyl-transferring enzyme? 96

Form entry - test system: α-isomaltosyl-transferring enzyme; read-out: Relative activity; compound: [Cu+2] 57

What is its Relative activity for α-isomaltosyl-transferring enzyme? Entry: [Ca+2] 101

GET /values?readout=Relative activity&system=α-isomaltosyl-transferring enzyme&item= [Al+3] 103

Reported Relative activity for α-isomaltosyl-transferring enzyme, given [Zn+2] ? 88

Provide value of Relative activity for this record tested with α-isomaltosyl-transferring enzyme: [Ba+2] 102

Relative activity of [Ni+2] on α-isomaltosyl-transferring enzyme? 102

Notebook: pull reported Relative activity for α-isomaltosyl-transferring enzyme, entry [Co+2] 103

State its Relative activity on α-isomaltosyl-transferring enzyme: O=C(O)CN(CCN(CC(=O)O)CC(=O)O)CC(=O)O 104

# query: Relative activity | item [Sr+2] | system: α-isomaltosyl-transferring enzyme 101

For the record [Hg+2] , what value of Relative activity is listed for α-isomaltosyl-transferring enzyme? 1

GET /values?readout=Relative activity&system=α-isomaltosyl-transferring enzyme&item= [Pb+2] 89
